TARGET OF ASSAY: Monoglyceride lipase (Rattus norvegicus, UniProt Q8R431)
Sequence (Q8R431 whole entry): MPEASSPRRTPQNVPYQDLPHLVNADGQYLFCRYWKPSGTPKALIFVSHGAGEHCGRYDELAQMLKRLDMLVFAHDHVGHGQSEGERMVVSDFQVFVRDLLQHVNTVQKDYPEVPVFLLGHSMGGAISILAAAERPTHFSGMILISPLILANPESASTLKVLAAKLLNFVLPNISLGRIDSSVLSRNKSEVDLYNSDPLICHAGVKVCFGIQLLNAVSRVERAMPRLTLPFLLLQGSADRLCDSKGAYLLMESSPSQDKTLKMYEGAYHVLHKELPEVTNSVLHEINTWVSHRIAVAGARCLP
PARAMETER: Ki (µM)
Answer format: numeric, µM implied, no suffix.

# input molecule: `CCCCCCCC/C=C\CCCCCC[C@H](N)CN` ; wanted: its Ki
21.8

----------
TARGET OF ASSAY: Monoglyceride lipase (Rattus norvegicus) (UniProt Q8R431)
ASSAY PROCEDURE: Inhibition of Sprague-Dawley rat MGL at 100 uM
inhibition of 30% or higher: 1.0. Under 30%: 0.0.

Reference set (5 entries):
Could you tell me if the measured inhibition of `CCCCCCCC/C=C\CCCCCC[C@H](N)CN` reaches 30% or more?
1.0

Could you tell me if the measured inhibition of `CCCCCCCCCCCCCCC(=O)C(=O)NCCO` reaches 30% or more?
0.0

Could you tell me if the measured inhibition of `CCCCCCCC/C=C\CCCCCC[C@@H](N)C(N)=O` reaches 30% or more?
0.0

Could you tell me if the measured inhibition of `CCCCCCCC/C=C\CCCCCC[C@@H](N)CN` reaches 30% or more?
1.0

Could you tell me if the measured inhibition of `NC[C@@H](N)CCCCc1ccccc1` reaches 30% or more?
0.0

Others:
Could you tell me if the measured inhibition of `CCCCCCCCCCCCCC[C@H](N)CO` reaches 30% or more?
1.0

Could you tell me if the measured inhibition of `CCCCCCOc1ccc(CCCC[C@H](N)CN)cc1` reaches 30% or more?
0.0

----------
TARGET OF ASSAY: Fatty-acid amide hydrolase 1 (Rattus norvegicus) (UniProt P97612)
Sequence (whole entry): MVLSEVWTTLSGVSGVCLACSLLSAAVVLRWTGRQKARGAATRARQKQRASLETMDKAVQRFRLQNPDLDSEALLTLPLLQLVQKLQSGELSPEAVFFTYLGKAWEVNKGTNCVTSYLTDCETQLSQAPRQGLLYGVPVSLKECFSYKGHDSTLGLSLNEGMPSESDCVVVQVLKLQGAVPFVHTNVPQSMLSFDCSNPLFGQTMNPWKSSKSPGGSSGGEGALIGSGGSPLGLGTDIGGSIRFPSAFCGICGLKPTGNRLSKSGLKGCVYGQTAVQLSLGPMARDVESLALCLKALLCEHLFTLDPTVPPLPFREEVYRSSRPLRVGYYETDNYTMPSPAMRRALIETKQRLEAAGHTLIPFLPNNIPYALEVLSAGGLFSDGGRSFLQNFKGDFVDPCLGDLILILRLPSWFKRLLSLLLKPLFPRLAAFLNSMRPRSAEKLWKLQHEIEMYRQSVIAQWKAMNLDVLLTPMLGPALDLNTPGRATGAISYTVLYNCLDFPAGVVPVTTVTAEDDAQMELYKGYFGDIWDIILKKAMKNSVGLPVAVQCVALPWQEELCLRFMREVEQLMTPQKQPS
ASSAY PROCEDURE: Inhibition of Sprague-Dawley rat FAAH at 100 uM
inhibition of 30% or higher: condition met. Under 30%: condition not met.

Reference set (5 entries):
Could you tell me if the measured inhibition of CCCCCCCCCCCCCCC(N)CN (centres undefined) reaches 30% or more?
condition met

Could you tell me if the measured inhibition of `CCCCCCCC/C=C\CCCCCC[C@@H](N)C(N)=O` reaches 30% or more?
condition not met

Could you tell me if the measured inhibition of `CCCCCCCCCCCCCC[C@H](N)CO` reaches 30% or more?
condition met

Could you tell me if the measured inhibition of `NC[C@@H](N)CCCCc1ccccc1` reaches 30% or more?
condition not met

Could you tell me if the measured inhibition of `CCCCCCCC/C=C\CCCCCC[C@H](N)CN` reaches 30% or more?
condition not met

Others:
Could you tell me if the measured inhibition of `CCCCCCCC/C=C\CCCCCC[C@@H](N)CN` reaches 30% or more?
condition not met

Could you tell me if the measured inhibition of `CCCCCCCCCCCCCC[C@@H](N)CO` reaches 30% or more?
condition met

Could you tell me if the measured inhibition of `CCCCCCCCCCCCCCC(=O)C(=O)NCCO` reaches 30% or more?
condition not met
